This collection of values is drawn from PubChem BioAssay (Tox21).

# target entity: Estrogen receptor (Homo sapiens) (UniProt P03372)
# Sequence (P03372 whole entry, looked up): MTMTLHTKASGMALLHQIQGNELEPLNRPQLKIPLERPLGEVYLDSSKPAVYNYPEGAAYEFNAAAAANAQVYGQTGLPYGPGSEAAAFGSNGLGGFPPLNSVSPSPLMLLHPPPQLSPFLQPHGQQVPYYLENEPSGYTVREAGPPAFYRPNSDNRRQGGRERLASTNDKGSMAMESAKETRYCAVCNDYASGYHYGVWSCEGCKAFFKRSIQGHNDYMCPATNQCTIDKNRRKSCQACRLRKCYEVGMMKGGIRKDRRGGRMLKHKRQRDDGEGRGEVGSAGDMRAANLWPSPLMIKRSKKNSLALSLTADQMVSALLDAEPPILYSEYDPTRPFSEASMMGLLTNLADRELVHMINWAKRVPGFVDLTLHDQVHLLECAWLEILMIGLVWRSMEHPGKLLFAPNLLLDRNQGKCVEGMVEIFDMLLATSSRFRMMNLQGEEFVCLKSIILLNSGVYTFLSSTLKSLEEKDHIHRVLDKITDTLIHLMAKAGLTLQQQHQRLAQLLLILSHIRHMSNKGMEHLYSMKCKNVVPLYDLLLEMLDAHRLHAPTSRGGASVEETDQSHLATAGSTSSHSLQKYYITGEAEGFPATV
# assay notes: qHTS assay to identify small molecule antagonists of the estrogen receptor alpha (ER-alpha) signaling pathway using the BG1 cell line in the presence of 0.1 nM 17-beta-estradiol (AID 1259244); further: nearly all actives have a fitted effect of over 50% in size
# condition context: VM7Luc4E2 (BG1) ERE-luciferase, antagonist mode, 0.1 nM E2, 22 h; series mostly up to 92.4 µM
# Excerpt: National Center for Advancing Translational Sciences [NCATS] NIH Chemical Genomics Center [NCGC] U.S. Environmental Protection Agency [EPA] National Institutes of Environmental Health Sciences [NIEHS] National Toxicology Program [NTP] U.S. Food and Drug Administration [FDA] Estrogen receptor (ER), a member of the nuclear hormone receptor plays an important role in development, metabolic homeostasis and reproduction. […]
Inconclusive results are not listed. The source made the active and inactive calls. The call rests on the fitted dose curve; in most records, active means well fitted inhibition curve with a large enough effect in the repeat runs; inconclusive means weak or mixed curves; inactive means no such curve, though single readings can be large or run the other way.
Hi there, use one of these labels in your reply, thanks! 1 = active, -1 = inactive

Study these solved cases before continuing.
Q: Status in this test for CCC(C)N(C)C(=O)c1cc2ccccc2c(-c2ccccc2Cl)n1 (configuration not stated) ?
Ans: -1

Q: Outcome logged for `CCOc1nc2cccc(C(=O)O)c2n1Cc1ccc(-c2ccccc2-c2nn[nH]n2)cc1` in this assay:
Ans: -1

Q: Entry CCN(CC)C(C)CN1c2ccccc2Sc2ccccc21 (configuration not stated) : call = ?
Ans: -1

Q: Tell me the recorded outcome of this test for `O=c1c2ccccc2nnn1CCl` .
Ans: -1

Q: Short answer needed: outcome of this test for `CC(C)(C)c1cc(O)c(C(C)(C)C)cc1O` ?
Ans: 1

Q: What was the test verdict on `Cc1ccc(C(C)c2ccc(C)c(C)c2)cc1C` ?
Ans: -1

Q: Check the results log: what was the call for `O=C(O)Cn1c(C(=O)Nc2nc(-c3ccccc3Cl)cs2)cc2ccccc21` ?
Ans: -1

Q: For `CN(C)CCCOc1nn(Cc2ccccc2)c2ccccc12` , which call appears in the assay record?
Ans: -1

***
Q: Outcome? `CCCCCCCCN(C)C`
Ans: -1

Q: Each compound tested received a call. Report the one for CCCCCCCCCCCCCCC1CO1 (configuration not stated) .
Ans: -1

Q: Kindly provide the recorded test outcome for the following compound: `CCCCCCCCCC=O`
Ans: -1

====

# assay notes: qHTS assay to identify small molecule agonists of the androgen receptor (AR) signaling pathway in the presence of an antagonist - cell viability counter screen (AID 1259379);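 further: MDA-kb2 human breast cancer cells carrying an MMTV luciferase reporter; nearly all actives have a fitted effect of over 25% in size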
# condition context: MDA-kb2 viability, CellTiter-Fluor, 16 h; series mostly up to 92.4 µM
Results filed as inconclusive are left out. Activity calls are given as the source filed them. Calls come from the whole dose curve; as a rule, active = well fitted cell-killing curve with a large enough effect in the repeat runs; inconclusive = weak or mixed curves, or effect the other way; inactive = flat fitted curve, though single readings scatter.
result type: outcome

Here is how some compounds turned out for outcome.
Looking up `COc1ccc([C@@H]2Sc3ccccc3N(CCN(C)C)C(=O)[C@@H]2OC(C)=O)cc1` , I see its outcome listed as inactive

Entry `CN(C(=O)CCCOc1ccc2[nH]c(=O)ccc2c1)C1CCCCC1` — recorded outcome = inactive

GET /value?item= `CC(=O)[C@@]1(O)CC[C@H]2[C@@H]3C[C@H](C)C4=CC(=O)CC[C@]4(C)[C@H]3CC[C@@]21C` &field=outcome returns inactive

Field outcome (entry `O=[N+]([O-])c1cc[n+]([O-])cc1` ) reads inactive

According to the records, this compound `CCCCc1cc2ccccc2c(OCCN(C)C)n1` displays outcome of inactive

compound `CCCCCCCCN(C)C` , outcome observed: inactive

---
Summary for this compound, `CC1(C)[C@H]2CC[C@]1(C)[C@H](O)C2` : outcome is inactive

According to the records, this compound `CCCCOc1cc(C(=O)OCCN(CC)CC)ccc1N` displays outcome of inactive

Looking up `O=C(NS(=O)(=O)/C=C/c1cccs1)c1ccc(F)cc1Br` , I see its outcome listed as inactive

The compound listed as `CCCCCOC(=O)COc1cc(N2C(=O)C3=C(CCCC3)C2=O)c(F)cc1Cl` has a reported outcome of inactive

Reported outcome ( `CCCC[C@H]1CN(CC2CCOCC2)C(=O)OC12CCN(C1(C)CCN(C(=O)c3c(C)ncnc3C)CC1)CC2` ) = inactive
